The measured values listed here are drawn from patent US4208514A.

Tested on: Cotton
Run description: Selective post-emergent greenhouse test, Cotton (crop injury)
Assay type: in vivo
Assay conditions: Gossypium hirsutum, post-emergence, 336 h; 0.63 lbs/acre, post-emergent, 2 weeks; crop; read-out: % Control Cotton
Description: So as to illustrate clearly the phytotoxic properties of the various active ingredients of the present invention, a group of controlled greenhouse experiments is described below. Various species of plants, both broadleaf weeds and valuable crops, were planted in beds of good agricultural soil in a greenhouse. […] After a period of 2 weeks the selective effect of the test ingredient on the plants was evaluated by a comparison with the control group of plants.
Classify as follows. Reported plant injury at 706.135 g/ha greater than or equal to 30%: Fulfilled. Reported plant injury at 706.135 g/ha below: Not fulfilled.

For orientation, consider the following solved cases.
Compound	Target system	Label
CC(C)N1C(=O)c2ccccc2N(S(=O)(=O)N(C)C)S1(=O)=O [SO2 N(CH3)2]	Cotton	Fulfilled
CC(C)N1C(=O)c2ccccc2N(S(=O)(=O)c2ccccc2)S1(=O)=O	Cotton	Not fulfilled
CC(C)N1C(=O)c2ccccc2N(C(=O)c2ccccc2)S1(=O)=O	Cotton	Not fulfilled
CCN(CC)C(=O)N1c2ccccc2C(=O)N(C(C)C)S1(=O)=O [CON(C2 H5)2]	Cotton	Fulfilled

Ask: Could you verify whether the entry CC(Br)C(=O)N1c2ccccc2C(=O)N(C(C)C)S1(=O)=O (stereo not drawn) [COCHBrCH3] shows plant injury at 706.135 g/ha of no less than 30%?
Result: Not fulfilled

Ask: Could you verify whether the entry CC(C)N1C(=O)c2ccccc2N(C(=O)C(C)(C)C)S1(=O)=O [COC(CH3)3] shows plant injury at 706.135 g/ha of no less than 30%?
Result: Fulfilled

Ask: Could you verify whether the entry CCSC(=O)N1c2ccccc2C(=O)N(C(C)C)S1(=O)=O [COSCH2 CH3] shows plant injury at 706.135 g/ha of no less than 30%?
Result: Fulfilled

Ask: Could you verify whether the entry CC(C)COC(=O)N1c2ccccc2C(=O)N(C(C)C)S1(=O)=O [CO2 CH2 CH(CH3)2] shows plant injury at 706.135 g/ha of no less than 30%?
Result: Not fulfilled

* * *

System: Velvet Leaf
Run description: General post-emergent herbicidal activity at 10 lbs/acre, Velvet Leaf
Format: in vivo
Assay conditions: post-emergence, 336 h
Measured pest or weed control at 11208.5 g/ha values are reported for all entries that follow.
Give the number first and the unit second.

Compound	Target system	pest or weed control at 11208.5 g/ha
CCCCOC(=O)N1c2ccccc2C(=O)N(C(C)C)S1(=O)=O [CO2 (CH2)3 CH3]	Velvet Leaf	100%

Ask: I am curious: what pest or weed control at 11208.5 g/ha value has been reported for CCCC(=O)N1c2ccccc2C(=O)N(C(C)C)S1(=O)=O [COCH2 CH2 CH3] ?
Result: 100%

Ask: I am curious: what pest or weed control at 11208.5 g/ha value has been reported for CCCOC(=O)N1c2ccccc2C(=O)N(C(C)C)S1(=O)=O [CO2 CH2 CH2 CH3] ?
Result: 100%

Ask: I am curious: what pest or weed control at 11208.5 g/ha value has been reported for CC(C)N1C(=O)c2ccccc2N(S(C)(=O)=O)S1(=O)=O [SO2 CH3] ?
Result: 100%

Ask: I am curious: what pest or weed control at 11208.5 g/ha value has been reported for COC(=O)N1c2ccccc2C(=O)N(C(C)C)S1(=O)=O [CO2 CH3] ?
Result: 100%

* * *

Tested on: Cotton
Run description: Selective post-emergent greenhouse test, Cotton (crop injury)
Type: in vivo
Assay conditions: Gossypium hirsutum, post-emergence, 336 h; 0.63 lbs/acre, post-emergent, 2 weeks; crop; read-out: % Control Cotton
Protocol: So as to illustrate clearly the phytotoxic properties of the various active ingredients of the present invention, a group of controlled greenhouse experiments is described below. Various species of plants, both broadleaf weeds and valuable crops, were planted in beds of good agricultural soil in a greenhouse. […] After a period of 2 weeks the selective effect of the test ingredient on the plants was evaluated by a comparison with the control group of plants.
Classify as follows. Reported plant injury at 706.135 g/ha greater than or equal to 50%: True. Reported plant injury at 706.135 g/ha below: False.

For orientation, consider the following solved cases.
Molecule	Label
CC(C)N1C(=O)c2ccccc2N(C(=O)OCCCl)S1(=O)=O	False
CC(C)N1C(=O)c2ccccc2N(C(=O)C2CCCCC2)S1(=O)=O	True
CC(C)N1C(=O)c2ccccc2N(C(=O)N(C)C)S1(=O)=O	False
CC(C)N1C(=O)c2ccccc2N(C(=O)CCl)S1(=O)=O	True
CC=CC(=O)N1c2ccccc2C(=O)N(C(C)C)S1(=O)=O	False

Ask: Could you verify whether the entry `CC(=O)N1c2ccccc2C(=O)N(C(C)C)S1(=O)=O` shows plant injury at 706.135 g/ha of no less than 50%?
Result: False

Ask: Could you verify whether the entry `COC(=O)N1c2ccccc2C(=O)N(C(C)C)S1(=O)=O` shows plant injury at 706.135 g/ha of no less than 50%?
Result: False

Ask: Could you verify whether the entry `CCC(=O)N1c2ccccc2C(=O)N(C(C)C)S1(=O)=O` shows plant injury at 706.135 g/ha of no less than 50%?
Result: True

Ask: Could you verify whether the entry CC(Cl)C(=O)N1c2ccccc2C(=O)N(C(C)C)S1(=O)=O (stereo not shown) [COCHClCH3] shows plant injury at 706.135 g/ha of no less than 50%?
Result: True

Ask: Could you verify whether the entry `CSC(=O)N1c2ccccc2C(=O)N(C(C)C)S1(=O)=O` shows plant injury at 706.135 g/ha of no less than 50%?
Result: True

Ask: Could you verify whether the entry COC(=O)CCC(=O)N1c2ccccc2C(=O)N(C(C)C)S1(=O)=O [drawing 13] shows plant injury at 706.135 g/ha of no less than 50%?
Result: True

Ask: Could you verify whether the entry CCC(C)OC(=O)N1c2ccccc2C(=O)N(C(C)C)S1(=O)=O (stereo not shown) shows plant injury at 706.135 g/ha of no less than 50%?
Result: False

Ask: Could you verify whether the entry `COCC(=O)N1c2ccccc2C(=O)N(C(C)C)S1(=O)=O` shows plant injury at 706.135 g/ha of no less than 50%?
Result: False

Ask: Could you verify whether the entry `CC(C)N1C(=O)c2ccccc2N(C(=O)CC(C)(C)C)S1(=O)=O` shows plant injury at 706.135 g/ha of no less than 50%?
Result: False

Ask: Could you verify whether the entry `CCCCCCCCCCCC(=O)N1c2ccccc2C(=O)N(C(C)C)S1(=O)=O` shows plant injury at 706.135 g/ha of no less than 50%?
Result: False

* * *

Tested on: Velvet Leaf
Run description: General post-emergent herbicidal activity at 10 lbs/acre, Velvet Leaf
Format: in vivo
Assay conditions: post-emergence, 336 h
Readout type: pest or weed control at 11208.5 g/ha (%)
Number only, in %; omit the unit.

Look over these answered cases.
Compound	Unit of measurement	pest or weed control at 11208.5 g/ha
CCN(CC)S(=O)(=O)N1c2ccccc2C(=O)N(C(C)C)S1(=O)=O	%	100
CCSC(=O)N1c2ccccc2C(=O)N(C(C)C)S1(=O)=O	%	100
C=CCOC(=O)N1c2ccccc2C(=O)N(C(C)C)S1(=O)=O	%	100
CC(C)N1C(=O)c2ccccc2N(S(=O)(=O)CCl)S1(=O)=O [SO2 CHCl]	%	100
CC(C)N1C(=O)c2ccccc2N(S(=O)(=O)C(C)C)S1(=O)=O	%	100
CCCCS(=O)(=O)N1c2ccccc2C(=O)N(C(C)C)S1(=O)=O	%	100
COC(=O)CCC(=O)N1c2ccccc2C(=O)N(C(C)C)S1(=O)=O	%	100
CC(C)OC(=O)N1c2ccccc2C(=O)N(C(C)C)S1(=O)=O	%	100

With those in mind, consider the next compound.
Ask: I am curious: what pest or weed control at 11208.5 g/ha value has been reported for `CC(C)C(=O)N1c2ccccc2C(=O)N(C(C)C)S1(=O)=O` ?
Result: 100

* * *

Tested on: Annual Morning Glory
Run description: General post-emergent herbicidal activity at 10 lbs/acre, Annual Morning Glory
Format: in vivo
Assay conditions: Ipomoea, post-emergence, 336 h
Procedure: Various species of plants, both broadleaf weeds and valuable crops, were planted in beds of good agricultural soil in a greenhouse. After the plants had emerged and grown to a height of about 2-6 inches, a portion of the plants were sprayed with an aqueous mixture, made by mixing a selected active ingredient and […], […] […] After a period of 2 weeks the selective effect of the test ingredient on the plants was evaluated by a comparison with the control group of plants.
Readout type: pest or weed control at 11208.5 g/ha (%)
Number only, in %; omit the unit.

Compound	pest or weed control at 11208.5 g/ha [%]
CC(C)N1C(=O)c2ccccc2N(S(=O)(=O)CCl)S1(=O)=O [SO2 CHCl]	80

Ask: I am curious: what pest or weed control at 11208.5 g/ha value has been reported for COC(=O)N1c2ccccc2C(=O)N(C(C)C)S1(=O)=O [CO2 CH3] ?
Result: 100

Ask: I am curious: what pest or weed control at 11208.5 g/ha value has been reported for COCC(=O)N1c2ccccc2C(=O)N(C(C)C)S1(=O)=O [COCH2 OCH3] ?
Result: 100

Ask: I am curious: what pest or weed control at 11208.5 g/ha value has been reported for CCSC(=O)N1c2ccccc2C(=O)N(C(C)C)S1(=O)=O [COSCH2 CH3] ?
Result: 100

Ask: I am curious: what pest or weed control at 11208.5 g/ha value has been reported for CC(=O)N1c2ccccc2C(=O)N(C(C)C)S1(=O)=O [COCH3] ?
Result: 100
